target-of-assay: Glucose transporter (Leishmania mexicana)
protocol-details: ST_JUDE_LEISH: Cytotoxicity at 2uM final concentration against transgenic Leishmania Mexicana promastigotes LmGT2 that are glucose transport deficient and complemented with the L. Mexicana glucose transporter 2. Activity is measured by DNA content using SYBR green in vitro
Format: functional
readout-name: inhibition (%)
Numbers only here, please. The scale is %.

Use these answered entries as a reference point.
O=C(c1ccc(Cl)cc1)N1CCOC(CCN2CCC(c3ccccc3)CC2)(c2ccc(Cl)c(Cl)c2)C1 (stereo not drawn)
-0.89
Cc1cccc2nc(-c3ccc(-c4ccc(CNCCNC(=O)c5ccnn5C)cc4)s3)[nH]c12
8.36
Cc1cccc2nc(-c3ccc(-c4ccc(NC(=O)NCc5cccc(F)c5)cc4)cc3)[nH]c12
10.3
CCNc1cc(C(=O)N[C@@H](Cc2cccc(F)c2)[C@H](O)CNC(C)CCCC(C)C)cc(N2CCCCS2(=O)=O)c1 (stereo partly drawn)
1.42
O=C(Nc1cc(C(F)(F)F)cc(C(F)(F)F)c1)c1cccc([N+](=O)[O-])c1
2.84

Okay, next one:
Entry under review: COc1cc2nc(N3CCC(C(N)=O)CC3)nc(NCc3ccccc3)c2cc1OC . Reported inhibition?
0.48

----------
target-of-assay: Solute carrier family 2, facilitated glucose transporter member 1 (Homo sapiens) (UniProt P11166)
Sequence (P11166 whole entry): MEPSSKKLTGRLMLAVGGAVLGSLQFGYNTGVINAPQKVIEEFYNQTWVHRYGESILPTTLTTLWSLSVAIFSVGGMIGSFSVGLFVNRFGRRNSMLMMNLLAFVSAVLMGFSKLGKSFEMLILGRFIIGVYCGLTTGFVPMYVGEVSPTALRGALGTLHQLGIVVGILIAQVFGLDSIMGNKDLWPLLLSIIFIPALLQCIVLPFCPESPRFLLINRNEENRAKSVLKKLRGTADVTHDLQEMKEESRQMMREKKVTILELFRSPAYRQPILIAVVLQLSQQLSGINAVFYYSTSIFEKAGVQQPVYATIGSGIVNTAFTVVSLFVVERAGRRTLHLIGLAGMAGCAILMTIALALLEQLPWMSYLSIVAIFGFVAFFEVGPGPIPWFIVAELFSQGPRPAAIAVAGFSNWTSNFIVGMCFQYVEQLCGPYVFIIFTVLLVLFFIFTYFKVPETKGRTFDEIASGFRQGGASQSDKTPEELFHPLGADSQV
protocol-details: ST_JUDE_LEISH: Cytotoxicity at 2uM final concentration against transgenic Leishmania Mexicana promastigotes LmGLUT1 that are glucose transport deficient and complemented with the human glucose transporter GLUT1. Activity is measured by DNA content using SYBR green in vitro
Format: functional
readout-name: inhibition (%)
Numbers only here, please. The scale is %.

Use these answered entries as a reference point.
CCN(CC)CCCCCNc1c2ccc(Cl)cc2nc2ccc(OC)cc12
2.17
O=C(NCCc1ccccc1)N(Cc1ccc(-c2cccc(CN3CCNCC3)c2)cc1)C1CCN(Cc2ccccc2)CC1
1.57
CCCCCC(C)c1cc(O)c2c(c1)OC(C)(C)C=C2C1=CCN(Cc2ccccc2)CC1 (centres undefined)
3.67
CN1CCN(c2ccnc3ccc(NC(=O)c4ccc(Cl)c(Cl)c4)cc23)CC1
-1.88
CC1(C)[C@H]2CC[C@@H](CNc3nc(NCC(=O)Nc4ccc5ccccc5c4)nc(N4CCC(N5CCCC5)CC4)n3)[C@@H]1C2
0.95

Entry under review: CC(=NNC(S)=NCCc1ccccn1)c1ccccn1 . Reported inhibition?
7.78

Entry under review: COc1cccc(C(=O)NCc2nnc(S)n2-c2ccc(Cl)c(Cl)c2)c1 . Reported inhibition?
-0.13

Entry under review: COc1cccc(NC(=O)Nc2ccc(Nc3nc(C)cc(N(C)C)n3)cc2)c1 . Reported inhibition?
2.46

Entry under review: CN1CCN(CCCN(Cc2csc(-c3ccc(CNCc4ccccc4)cc3)n2)S(=O)(=O)c2ccccc2)CC1 . Reported inhibition?
12.2

----------
target-of-assay: Hexose transporter 1 (Plasmodium falciparum)
protocol-details: ST_JUDE_LEISH: Cytotoxicity at 2uM final concentration against transgenic Leishmania Mexicana promastigotes LmPfHT that are glucose transport deficient and complemented with the Plasmodium falciparum hexose transporter. Activity is measured by DNA content using SYBR green in vitro
Format: functional
In this section we review reported inhibition values for a set of compounds.
Numbers only here, please. The scale is %.

Use these answered entries as a reference point.
COC(=O)c1ccc(NC(=O)c2ccc(CCN3CCC(c4nc(COCC(F)(F)F)c(-c5ccc(F)cc5)o4)CC3)cc2)cc1
3.11
Cc1cc(N/N=C/c2ccccc2[N+](=O)[O-])c2ccccc2n1
5.28
CN(C)CCCN(C)c1cccc2c1nc(-c1cccnc1)n2CCNCc1ccccc1
7.52
O=C(/C=C/c1ccc(Cl)c(Cl)c1)NCCCCCN1CCCN(C(=O)Nc2ccc(OC(F)F)cc2)CC1
1.15
CN(C(=O)/C=C/c1ccccc1F)C1CCN(CCCCCNC(=O)/C=C/c2ccc(Cl)c(Cl)c2)CC1
4.23

Entry under review: COc1ccc(-c2cccc(NC(=O)c3cccc(C#N)c3)c2)cc1CN1CCN(C)CC1 . Reported inhibition?
2.19

Entry under review: Cc1cc(N(C)C)nc(Nc2ccc(NC(=O)c3ccccc3F)cc2)n1 . Reported inhibition?
12.2

Entry under review: O=C(/C=C/c1ccc(Cl)c(Cl)c1)NCCCCCN1CCCC(CNS(=O)(=O)c2cccc(C(F)(F)F)c2)C1 (centres undefined) . Reported inhibition?
-0.18

Entry under review: CC1(C)[C@H]2CC[C@@H](CNc3nc(NCCc4c[nH]cn4)nc(Nc4ccc5c(c4)OCO5)n3)[C@@H]1C2 . Reported inhibition?
0.99

----------
In this section we review reported inhibition values for a set of compounds.
target-of-assay: Hexose transporter 1 (Plasmodium falciparum) (UniProt O97467)
protocol-details: ST_JUDE_LEISH: Cytotoxicity at 2uM final concentration against transgenic Leishmania Mexicana promastigotes LmPfHT that are glucose transport deficient and complemented with the Plasmodium falciparum hexose transporter. Activity is measured by DNA content using SYBR green in vitro
Assay type: functional

Use these answered entries as a reference point.
O=C(Nc1cccc(CN2CCN(C(=O)c3cccc(F)c3)CC2)c1)c1cccs1
1.04%
CCOC(=O)CNC(=O)N(CCN(Cc1ccccc1)C(=O)NCC(=O)OCC)Cc1ccccc1
2.07%
O=C(Nc1cccc(OCCN2CCCC2)c1)Nc1ccc(Cl)c(Cl)c1
2.15%

Okay, next one:
Entry under review: OC1=C2C(=Nc3ccccc3SC2c2cccs2)c2ccccc21 (centres undefined) . Reported inhibition?
10.8%

----------
target-of-assay: Hexose transporter 1 (Plasmodium falciparum)
protocol-details: ST_JUDE_LEISH: Cytotoxicity at 2uM final concentration against transgenic Leishmania Mexicana promastigotes LmPfHT that are glucose transport deficient and complemented with the Plasmodium falciparum hexose transporter. Activity is measured by DNA content using SYBR green in vitro
Type: functional
readout-name: inhibition (%)
Numbers only here, please. The scale is %.

Use these answered entries as a reference point.
CN(c1ccc(NC(=O)Nc2cc(C(F)(F)F)ccc2F)cc1)c1ccnc(NCCN2CCOCC2)n1
18.5
Cc1nnc2c(N(C(=O)NCCc3ccccc3)C(=O)NCCc3ccccc3)cc3cc(Cl)ccc3n12
10.1
COCCn1c(C)nc2ccccc2c1=O
1.69
Cc1ccccc1C1CCN(c2ncc(C(=O)NC3CC3)cc2Cl)CC1
5.9
CN(C)CCCNCCS(=O)(=O)c1cccc(Nc2ccc(-c3cccc(N(C)C)c3)cn2)c1
1.88
O=S(=O)(NC1CCN(c2ccnc3cc(Cl)ccc23)C1)c1cccc(F)c1 (stereo not given)
9.98
Cc1ccc2c(c1C)NC(=O)C21NN=C(c2ccccc2)S1 (stereo not given)
-1.15
COc1cc2nc(NCCc3ccccc3)nc(NCCCc3ccccc3)c2cc1OC
10.1
O=C(Nc1ccc2c(c1)CCC2)c1ccc(N2CCN(c3ccncc3)CC2)cn1
12.8
CCCOc1ccc(N2C(N)=NC(N)=NC2(C)C)cc1
1.16

Okay, next one:
Entry under review: Cc1cc(C)n(Cc2ccc(C(=O)NCC3CCCCC3)cc2)n1 . Reported inhibition?
2.07

----------
In this section we review reported inhibition values for a set of molecules.
target-of-assay: Glucose transporter (Leishmania mexicana) (UniProt O61059)
protocol-details: ST_JUDE_LEISH: Cytotoxicity at 2uM final concentration against transgenic Leishmania Mexicana promastigotes LmGT2 that are glucose transport deficient and complemented with the L. Mexicana glucose transporter 2. Activity is measured by DNA content using SYBR green in vitro
Format: functional
Numbers only here, please. The scale is %.

Cc1csc(-c2ncc(OC[C@@H](N)Cc3ccccc3)cc2-c2ccc3[nH]nc(C)c3c2)c1
-0.58
CN1CCN(Cc2ccc(-c3ccc4c(Nc5cc(O)c(Cl)cc5F)ccnc4c3)o2)CC1
4.5

Entry under review: O=C(/C=C/c1ccc(Cl)c(Cl)c1)NCCCCCN1CCC(NC(=O)NC2CCCC2)CC1 . Reported inhibition?
0.26

Entry under review: Cc1ccc(-c2nn3c(O)c4c(nc3c2C)CCCC4)cc1 . Reported inhibition?
1.28

Entry under review: COc1ccc2c(=NN=C(C)c3ccccn3)cc(C)[nH]c2c1 . Reported inhibition?
4.08

Entry under review: COc1cc2nccc(Nc3cccc(Oc4ccccc4)c3)c2cc1OC . Reported inhibition?
9.3

Entry under review: CC(C)C[C@H](NC(=O)OC(C)(C)C)C(=O)Nc1ccc(Cc2ccc(NC(=O)[C@H](CC(C)C)NC(=O)OC(C)(C)C)cc2)cc1 . Reported inhibition?
2.99

Entry under review: CCc1sc(-c2ccc(C(C)(C)C)cc2)nc1C(=O)NCCCN1CCCC1=O . Reported inhibition?
-4.69

Entry under review: CCCCCCN(CCCCCC)CC(O)c1cc(-c2ccc(Cl)cc2)nc2c(C)cc(C)cc12 (centres undefined) . Reported inhibition?
8.75

----------
target-of-assay: Hexose transporter 1 (Plasmodium falciparum)
protocol-details: ST_JUDE_LEISH: Cytotoxicity at 2uM final concentration against transgenic Leishmania Mexicana promastigotes LmPfHT that are glucose transport deficient and complemented with the Plasmodium falciparum hexose transporter. Activity is measured by DNA content using SYBR green in vitro
Type: functional
In this section we review reported inhibition values for a set of compounds.
Numbers only here, please. The scale is %.

Use these answered entries as a reference point.
O=C(Nc1ccc(N2CCCN(Cc3cccc(F)c3)CC2)cc1)c1ccc(F)cc1
5.55
NCc1ccc(CNCc2cccc(-c3ccc(-c4nc5ccccc5[nH]4)cc3)c2)cc1
11.8
O=C(N[C@@H](CC1CCCCC1)C(=O)NC1CC1)c1ccc(O)c(-c2cccc(C(F)(F)F)c2)c1
2.6

Entry under review: Cc1cc(OCCCN2CCCC2)ccc1NC(=O)COc1ccc(Cl)cc1C(=O)c1cc(C#N)cc(C(F)(F)F)c1 . Reported inhibition?
11.6

Entry under review: Oc1cccc2ccc(Nc3ccccn3)nc12 . Reported inhibition?
2.29

Entry under review: CS(=O)(=O)NCCCNCc1ccc(-c2ccc(-c3nc4cc(F)ccc4[nH]3)s2)cc1 . Reported inhibition?
-1.55

Entry under review: COc1cc2/c(=N/c3ccc(Br)cc3F)nc[nH]c2cc1OCC1CCN(C)CC1 . Reported inhibition?
2.56

Entry under review: c1ccc(-c2cc(NCCCCCCCCNc3cc(-c4ccccc4)nc4ccccc34)c3ccccc3n2)cc1 . Reported inhibition?
104

Entry under review: CCOC(=O)c1cc(C(=O)NCCCCN2CCC(c3ccc(CC)cc3OCC)CC2)ccc1-c1ccc(C(F)(F)F)cc1 . Reported inhibition?
8.59
